The origin of these recorded values is ChEMBL document CHEMBL1145898.

Target: Acetylcholinesterase (Torpedo californica, UniProt P04058)
Sequence (P04058 whole entry): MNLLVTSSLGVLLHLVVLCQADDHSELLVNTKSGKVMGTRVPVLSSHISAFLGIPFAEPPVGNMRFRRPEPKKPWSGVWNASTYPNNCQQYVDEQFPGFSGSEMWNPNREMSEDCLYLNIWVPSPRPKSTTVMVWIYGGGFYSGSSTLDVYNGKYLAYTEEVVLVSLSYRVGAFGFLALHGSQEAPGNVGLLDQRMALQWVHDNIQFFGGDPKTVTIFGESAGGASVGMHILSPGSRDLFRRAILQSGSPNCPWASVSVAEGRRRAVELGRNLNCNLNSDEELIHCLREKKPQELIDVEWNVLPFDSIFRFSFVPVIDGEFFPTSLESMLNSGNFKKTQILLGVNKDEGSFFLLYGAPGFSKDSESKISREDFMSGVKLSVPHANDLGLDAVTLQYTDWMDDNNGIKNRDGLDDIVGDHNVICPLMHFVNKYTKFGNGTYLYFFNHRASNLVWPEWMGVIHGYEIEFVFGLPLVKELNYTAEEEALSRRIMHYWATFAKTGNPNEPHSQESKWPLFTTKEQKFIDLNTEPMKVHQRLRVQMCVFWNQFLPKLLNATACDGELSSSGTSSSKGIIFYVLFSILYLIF
Labelling field: enter true (1) if recorded IC50 is less than 80 µM. Enter false (0) if it equals or exceeds that cut-off.

molecule=C/C=C(\C)C(=O)N[C@@H]1[C@H](OC(C)=O)[C@@H]2CC[C@H]3C4=CC[C@H]([C@H](C)N(C)C)[C@@]4(C)CC[C@@H]3[C@@]2(C)C[C@@H]1O assigned_class="true (1)"
molecule=C/C(=C\C(=O)N(C)[C@H]1CC[C@@]2(C)[C@@H](CC[C@@H]3[C@@H]2CC[C@]2(C)C([C@H](C)N(C)C)=CC[C@@H]32)C1)C(C)C assigned_class="true (1)"
molecule=CC(=O)N[C@H]1CC[C@@]2(C)[C@@H](CC[C@@H]3[C@@H]2CC[C@]2(C)[C@@H]([C@H](C)N(C)C)CC[C@@H]32)C1 assigned_class="true (1)"
molecule=C/C=C(\C)C(=O)N[C@@H]1C=C2CC[C@@H]3[C@H](CC[C@]4(C)C([C@H](C)N(C)C)=CC[C@@H]34)[C@@]2(C)C[C@H]1O assigned_class="false (0)"
molecule=CC(=O)O[C@H]1[C@@H](NC(=O)c2ccccc2)[C@@H](O)C[C@]2(C)[C@H]3CC[C@]4(C)[C@@H]([C@H](C)N(C)C)CC[C@H]4[C@@H]3CC[C@@H]12 assigned_class="false (0)"
molecule=C[C@@H]([C@H]1CC[C@H]2[C@@H]3CC[C@H]4C(=O)C(NC(=O)c5ccccc5)=CC[C@]4(C)[C@H]3CC[C@]12C)N(C)C assigned_class="true (1)"
molecule=CN[C@H]1CC[C@@]2(C)[C@@H](CC[C@@H]3[C@@H]2CC[C@]2(C)[C@@H]([C@H](C)N(C)C(C)=O)CC[C@@H]32)C1 assigned_class="false (0)"
molecule=C/C(=C\C(=O)N[C@H]1CC[C@@]2(C)[C@@H](CC[C@@H]3[C@@H]2CC[C@]2(C)[C@@H]([C@H](C)N(C)C)CC[C@@H]32)C1)C(C)C assigned_class="true (1)"
molecule="C[C@@H]([C@H]1CC[C@H]2[C@@H]3CC[C@H]4C[C@@H](N(C)C(=O)/C=C/c5ccccc5)CC[C@]4(C)[C@H]3CC[C@]12C)N(C)C [SALIGCINNAMIDE]" assigned_class="true (1)"
molecule=CC(=O)O[C@H]1[C@@H](NC(=O)C=C(C)C)CC[C@]2(C)[C@H]3CC[C@]4(C)[C@@H]([C@H](C)N(C)C)CC[C@H]4[C@@H]3CC[C@@H]12 assigned_class="true (1)"
molecule=C/C=C(\C)C(=O)N[C@H]1CC[C@@]2(C)C(=CC[C@H]3[C@@H]4CC[C@H]([C@H](C)N(C)C)[C@@]4(C)CC[C@@H]32)C1=O assigned_class="true (1)"
molecule=C/C=C(\C)C(=O)N[C@@H]1[C@H](OC(C)=O)[C@@H]2CC[C@@H]3[C@H](CC[C@]4(C)[C@@H]([C@H](C)N(C)C)CC[C@@H]34)[C@@]2(C)C[C@@H]1O assigned_class="false (0)"
